IC50 values, listed per item
System: AR-driven transcription (ARE-Luciferase)
Experiment: AR-driven transcription ARE Luciferase reporter assay in CWR22Pc-R1-AD1 cells
Format: cell-based, human
Conditions: CWR22Pc-R1-AD1 cells, 1 nM DHT, 24 h; read-out: AR-driven transcription (ARE-Luciferase), 24 h, IC50
assay readout: IC50 (µM)

1. N#Cc1cc2cc(CN3CCC(Nc4ncnc5sc(CC(F)(F)F)cc45)CC3)ccc2[nH]1 : 7.4
2. Cc1c(CN2CCC(Nc3ncnc4sc(CC(F)(F)F)cc34)CC2)ccc2c1cc(C#N)n2Cc1cn[nH]c1 : 11
3. Cc1sc2c(c1C)C(c1ccc(Cl)cc1)=N[C@@H](CC(=O)OC(C)(C)C)c1nnc(C)n1-2 : 0.302

* * *

System: AR-driven transcription (ARE-Luciferase)
Test: AR-driven transcription ARE Luciferase reporter assay in CWR22Pc-R1-AD1 cells
Assay type: cell-based, human
Settings: CWR22Pc-R1-AD1 cells, 1 nM DHT, 24 h; read-out: AR-driven transcription (ARE-Luciferase), 24 h, IC50
pIC50: −log10 of the molar value.
assay readout: pIC50

1) COc1ccc(/C=C/C(=O)/C=C(O)/C=C/c2ccc(OC)c(OC)c2)cc1OC [ACS-J9] : < 5.00
2) CN(C)[C@H]1CN(C2CCc3cccc(F)c32)C[C@@H]1c1ccc(N2CCN(S(C)(=O)=O)CC2)cc1 (stereo partly drawn) [A-395] : < 4.52
3) O=C(O)c1ccc(CN2CCC(CN[C@@H]3C[C@H]3c3ccccc3)CC2)cc1 [GSK2879522] : < 4.52

* * *

System: total cellular AR
Assay: CETSA HT control without heat shock and without exogenous DHT (total AR)
Assay type: cell-based, human
Conditions: 2 h compound incubation, no exogenous DHT, no 46 °C heat shock
assay readout: effect on total AR (no heat shock)

1) CN1CCN(c2ccc(C(=O)Nc3n[nH]c4ccc(Cc5cc(F)cc(F)c5)cc34)c(NC3CCOCC3)c2)CC1 : do not reduce total AR
2) CC(C)(O)C(=O)Nc1ccc([N+](=O)[O-])c(C(F)(F)F)c1 [Hydroxyflutamide] : do not reduce total AR
3) CC(C)c1cc(C(=O)N2Cc3ccc(CN4CCN(C)CC4)cc3C2)c(O)cc1O : reduces total AR
4) CCNC(=O)c1noc(-c2cc(C(C)C)c(O)cc2O)c1-c1ccc(CN2CCOCC2)cc1 : reduces total AR

* * *

Molecular target: Androgen Receptor (AR) (Homo sapiens, UniProt P10275, T878A)
Construct: an alternative AR-positive prostate cancer cell line, LNCaP; endogenous in cells; host or cells: LNCaP
Sequence (P10275 whole entry T878A): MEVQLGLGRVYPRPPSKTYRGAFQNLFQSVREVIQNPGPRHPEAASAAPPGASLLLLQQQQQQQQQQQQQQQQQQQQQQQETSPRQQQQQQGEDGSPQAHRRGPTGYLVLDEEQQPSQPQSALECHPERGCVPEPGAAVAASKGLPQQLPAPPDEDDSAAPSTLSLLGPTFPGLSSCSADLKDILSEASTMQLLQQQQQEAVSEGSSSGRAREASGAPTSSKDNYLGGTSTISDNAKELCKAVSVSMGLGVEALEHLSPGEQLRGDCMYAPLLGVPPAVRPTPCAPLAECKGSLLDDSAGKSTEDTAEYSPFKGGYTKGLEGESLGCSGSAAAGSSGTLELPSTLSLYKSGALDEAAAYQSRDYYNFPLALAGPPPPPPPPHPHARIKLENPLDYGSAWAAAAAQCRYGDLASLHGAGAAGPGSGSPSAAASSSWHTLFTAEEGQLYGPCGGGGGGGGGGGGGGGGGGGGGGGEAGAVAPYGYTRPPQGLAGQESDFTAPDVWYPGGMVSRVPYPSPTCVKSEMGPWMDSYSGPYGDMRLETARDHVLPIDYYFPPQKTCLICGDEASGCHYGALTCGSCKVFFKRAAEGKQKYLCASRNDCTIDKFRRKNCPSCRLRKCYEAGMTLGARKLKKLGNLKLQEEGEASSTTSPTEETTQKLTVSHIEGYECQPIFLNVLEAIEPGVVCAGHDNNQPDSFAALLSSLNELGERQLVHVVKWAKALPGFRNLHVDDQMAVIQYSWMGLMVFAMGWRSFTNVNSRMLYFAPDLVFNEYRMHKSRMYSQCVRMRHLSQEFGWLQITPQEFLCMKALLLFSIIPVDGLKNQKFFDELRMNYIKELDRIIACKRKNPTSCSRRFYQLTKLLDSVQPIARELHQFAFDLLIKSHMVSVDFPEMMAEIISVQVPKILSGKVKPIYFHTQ
Experiment: CETSA HT ITDRF at 46 °C, agonist mode, LNCaP cells
Type: binding
Settings: read-out: EC50 for AR thermal stabilisation (ITDRF CETSA), LNCaP cells, agonist alone
pEC50: −log10 of the molar value.
assay readout: pEC50

1. C[C@]12CCC(=O)C=C1CC[C@@H]1[C@@H]2C(=O)C[C@]2(C)C(=O)CC[C@@H]12 : 7.15

* * *

System: AR-driven transcription (ARE-Luciferase)
Assay: AR-driven transcription ARE Luciferase reporter assay in CWR22Pc-R1-AD1 cells
Type: cell-based, human
Conditions: Homo sapiens, 24 h; read-out: ARE-Luciferase response pIC50 (converted)
Label YES when IC50 is strictly below 1000 nM; otherwise label NO.

1. O=C(Nc1ccc([N+](=O)[O-])cc1Cl)c1cc(Cl)ccc1O [Niclosamide] : YES
2. CC(C)c1cc(C(=O)N2Cc3ccc(CN4CCN(C)CC4)cc3C2)c(O)cc1O : YES
3. Cc1sc2c(c1C)C(c1ccc(Cl)cc1)=N[C@@H](CC(=O)Nc1ccc(O)cc1)c1nnc(C)n1-2 : YES
4. CCNC(=O)c1noc(-c2cc(C(C)C)c(O)cc2O)c1-c1ccc(CN2CCOCC2)cc1 : YES
5. CC(C)(O)C(=O)Nc1ccc([N+](=O)[O-])c(C(F)(F)F)c1 [Hydroxyflutamide] : YES
6. CN1CCN(c2ccc(C(=O)Nc3n[nH]c4ccc(Cc5cc(F)cc(F)c5)cc34)c(NC3CCOCC3)c2)CC1 : NO
7. CO[C@@H](C(=O)N1Cc2n[nH]c(NC(=O)c3ccc(N4CCN(C)CC4)cc3)c2C1)c1ccccc1 : NO
8. C=CCNC1=C2C[C@@H](C)C[C@H](OC)[C@H](O)[C@@H](C)/C=C(\C)[C@H](OC(N)=O)[C@@H](OC)/C=C\C=C(/C)C(=O)NC(=CC1=O)C2=O : NO

* * *

Target: Androgen Receptor (AR) (Homo sapiens, UniProt P10275, H875Y)
Construct: exclusively expresses a structurally full-length AR containing a H874Y mutation; endogenous in cells; host or cells: CWR22Pc-R1-AD1
Sequence (P10275 whole entry H875Y): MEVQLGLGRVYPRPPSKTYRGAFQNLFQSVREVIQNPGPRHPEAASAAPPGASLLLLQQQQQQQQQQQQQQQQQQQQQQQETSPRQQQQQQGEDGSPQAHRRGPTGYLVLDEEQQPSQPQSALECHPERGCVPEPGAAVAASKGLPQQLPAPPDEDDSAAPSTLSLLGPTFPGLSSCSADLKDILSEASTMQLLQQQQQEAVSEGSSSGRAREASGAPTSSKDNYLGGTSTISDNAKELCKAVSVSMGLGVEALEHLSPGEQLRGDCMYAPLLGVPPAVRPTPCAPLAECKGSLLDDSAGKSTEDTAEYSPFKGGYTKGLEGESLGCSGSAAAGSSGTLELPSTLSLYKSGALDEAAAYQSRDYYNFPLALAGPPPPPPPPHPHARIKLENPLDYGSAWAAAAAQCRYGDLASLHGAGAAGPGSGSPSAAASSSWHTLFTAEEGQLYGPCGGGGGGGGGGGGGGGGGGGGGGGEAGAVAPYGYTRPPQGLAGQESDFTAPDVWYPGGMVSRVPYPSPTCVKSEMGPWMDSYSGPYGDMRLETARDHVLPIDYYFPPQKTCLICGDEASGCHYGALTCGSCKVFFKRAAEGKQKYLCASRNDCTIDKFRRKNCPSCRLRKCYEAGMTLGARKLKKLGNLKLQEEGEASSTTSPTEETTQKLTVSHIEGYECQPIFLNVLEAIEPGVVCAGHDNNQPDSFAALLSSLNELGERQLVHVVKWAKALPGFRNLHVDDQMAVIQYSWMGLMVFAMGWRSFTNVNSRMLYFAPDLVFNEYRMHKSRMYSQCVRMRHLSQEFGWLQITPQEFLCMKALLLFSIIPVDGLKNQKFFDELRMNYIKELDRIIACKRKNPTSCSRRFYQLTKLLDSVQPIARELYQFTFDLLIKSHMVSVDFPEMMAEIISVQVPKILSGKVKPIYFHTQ
Assay: CETSA HT ITDRF at 46 °C, antagonist mode in the presence of 1 nM DHT, CWR22Pc-R1-AD1 cells
Assay type: binding
Conditions: Supplementary Table S1; 2 h, 46 °C
assay readout: Conclusion: activity in CETSA HT

1. CCNC(=O)c1noc(-c2cc(C(C)C)c(O)cc2O)c1-c1ccc(CN2CCOCC2)cc1 : Active
2. Oc1nc(-c2ccc(C(F)(F)F)cc2)nc2c1CSCC2 : Inactive
3. CN1CCN(c2ccc(C(=O)Nc3n[nH]c4ccc(Cc5cc(F)cc(F)c5)cc34)c(NC3CCOCC3)c2)CC1 : Inactive
4. CC(C)(O)C(=O)Nc1ccc([N+](=O)[O-])c(C(F)(F)F)c1 [Hydroxyflutamide] : Active
5. CS(=O)(=O)c1ccc(-c2cnc(NCc3ccco3)n3cnnc23)cc1 : Inactive

* * *

Test system: AR-driven transcription (ARE-Luciferase)
Experiment: AR-driven transcription ARE Luciferase reporter assay in CWR22Pc-R1-AD1 cells
Format: cell-based, human
Settings: Supplementary Table S1; 24 h, 1 nM DHT
assay readout: Conclusion: activity in ARE-Luciferase assay

1. CS(=O)(=O)c1ccc(-c2cnc(NCc3ccco3)n3cnnc23)cc1 : Inactive
2. CC(C)c1cc(C(=O)N2Cc3ccc(CN4CCN(C)CC4)cc3C2)c(O)cc1O : Active
3. C=CCNC1=C2C[C@@H](C)C[C@H](OC)[C@H](O)[C@@H](C)/C=C(\C)[C@H](OC(N)=O)[C@@H](OC)/C=C\C=C(/C)C(=O)NC(=CC1=O)C2=O : Active
4. O=C(O)c1ccc(CN2CCC(CN[C@@H]3C[C@H]3c3ccccc3)CC2)cc1 : Inactive

* * *

pIC50 values, listed per item
System: AR-driven transcription (ARE-Luciferase)
Test: AR-driven transcription ARE Luciferase reporter assay in CWR22Pc-R1-AD1 cells
Type: cell-based, human
Conditions: Homo sapiens, 24 h; read-out: AR-driven transcription (ARE-Luciferase), 24 h, IC50
pIC50: −log10 of the molar value.
assay readout: pIC50

1. CCNC(=O)c1noc(-c2cc(C(C)C)c(O)cc2O)c1-c1ccc(CN2CCOCC2)cc1 : 7.05
2. CC(C)(O)C(=O)Nc1ccc([N+](=O)[O-])c(C(F)(F)F)c1 [Hydroxyflutamide] : 6.87
3. CC(C)c1cc(C(=O)N2Cc3ccc(CN4CCN(C)CC4)cc3C2)c(O)cc1O : 6.27
4. Cc1sc2c(c1C)C(c1ccc(Cl)cc1)=N[C@@H](CC(=O)Nc1ccc(O)cc1)c1nnc(C)n1-2 : 6.67
5. C=CCNC1=C2C[C@@H](C)C[C@H](OC)[C@H](O)[C@@H](C)/C=C(\C)[C@H](OC(N)=O)[C@@H](OC)/C=C\C=C(/C)C(=O)NC(=CC1=O)C2=O : 5.49
6. CN1CCN(c2ccc(C(=O)Nc3n[nH]c4ccc(Cc5cc(F)cc(F)c5)cc34)c(NC3CCOCC3)c2)CC1 : 4.95
7. O=C(Nc1ccc([N+](=O)[O-])cc1Cl)c1cc(Cl)ccc1O [Niclosamide] : 6.02
8. CO[C@@H](C(=O)N1Cc2n[nH]c(NC(=O)c3ccc(N4CCN(C)CC4)cc3)c2C1)c1ccccc1 : 5.59

* * *

Tested on: AR-driven transcription (ARE-Luciferase)
Experiment: AR-driven transcription ARE Luciferase reporter assay in CWR22Pc-R1-AD1 cells;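 further: cells stably carrying an ARE-driven firefly luciferase reporter, with luminescence as read-out, tested in phenol red free RPMI containing 10% charcoal stripped FBS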
Assay type: cell-based, human
Conditions: Supplementary Table S1; 24 h, 1 nM DHT
assay readout: Conclusion: activity in ARE-Luciferase assay

1. CO[C@H]1CNC[C@@H](OCC2CCC(F)(F)CC2)[C@@H]1Nc1ncc(-c2cncc(C)c2)c2cc(C)c(=O)[nH]c12 [GSK8814] : Inactive
2. CO[C@@H](C(=O)N1Cc2n[nH]c(NC(=O)c3ccc(N4CCN(C)CC4)cc3)c2C1)c1ccccc1 [Danusertib] : Active
3. CN(C)[C@H]1CN(C2CCc3cccc(F)c32)C[C@@H]1c1ccc(N2CCN(S(C)(=O)=O)CC2)cc1 (some centres unmarked) [A-395] : Inactive
4. CCNC(=O)c1noc(-c2cc(C(C)C)c(O)cc2O)c1-c1ccc(CN2CCOCC2)cc1 [NVP-AUY-922] : Active
5. Cc1c(CN2CCC(Nc3ncnc4sc(CC(F)(F)F)cc34)CC2)ccc2c1cc(C#N)n2Cc1cn[nH]c1 [MI-503] : Active
6. CC[C@H](C)n1cc(C)c2c(C(=O)NCc3c(C)cc(C)[nH]c3=O)cc(-c3ccc(N4CCNCC4)nc3)cc21 [GSK-126] : Inactive
7. Cc1sc2c(c1C)C(c1ccc(Cl)cc1)=N[C@@H](CC(=O)OC(C)(C)C)c1nnc(C)n1-2 [JQ1] : Partial
8. C[C@]12CC[C@H](O)CC1=CC[C@@H]1[C@@H]2CC[C@]2(C)C(c3cccnc3)=CC[C@@H]12 [Abiraterone] : Inactive
9. Oc1nc(-c2ccc(C(F)(F)F)cc2)nc2c1CSCC2 [XAV-939] : Inactive
10. COc1ccc(/C=C/C(=O)/C=C(O)/C=C/c2ccc(OC)c(OC)c2)cc1OC [ACS-J9] : Active
11. Cc1cc(-c2ncc(CC(=O)Nc3ccc(-c4cnccn4)cn3)cc2C)ccn1 [WNT-974] : Inactive
12. N#Cc1cc2cc(CN3CCC(Nc4ncnc5sc(CC(F)(F)F)cc45)CC3)ccc2[nH]1 [MI-136] : Active
13. CCN(c1cc(-c2ccc(CN3CCOCC3)cc2)cc(C(=O)NCc2c(C)cc(C)[nH]c2=O)c1C)C1CCOCC1 [EPZ-6438] : Inactive
14. CC(C)(O)C(=O)Nc1ccc([N+](=O)[O-])c(C(F)(F)F)c1 [Hydroxyflutamide] : Active
15. O=C(Nc1ccc([N+](=O)[O-])cc1Cl)c1cc(Cl)ccc1O [Niclosamide] : Active
16. CN1CCN(c2ccc(C(=O)Nc3n[nH]c4ccc(Cc5cc(F)cc(F)c5)cc34)c(NC3CCOCC3)c2)CC1 [Entrectinib] : Active
17. Cc1sc2c(c1C)C(c1ccc(Cl)cc1)=N[C@@H](CC(=O)Nc1ccc(O)cc1)c1nnc(C)n1-2 [OTX-015] : Partial
